assay: xn = mol fraction of the nth substance listed; settings: 288.15 K; 98.93 kPa; Liquid; x1 = 0.08
quantity: mass density (kg/m3)

> print(dat)
                                   compound  reported.result
1                    CCCO [propan-1-ol] + O           966.99
2  CC(O)CO (centres undefined) [1,2-propanediol] + O          1023.18
3                   OCC(O)CO [glycerol] + O          1076.64
4               OCCCO [propan-1,3-diol] + O          1019.75

---

// mass density lookup, one value per entry
assay: xn = mol fraction of the nth substance listed; conditions: 303.15 K; 98.93 kPa; Liquid; x1 = 0.002
quantity: mass density (kg/m3)

> print(dat)
                                   compound  reported.result
1                    CCCO [propan-1-ol] + O            994.2
2  CC(O)CO (centres undefined) [1,2-propanediol] + O           996.13
3                   OCC(O)CO [glycerol] + O           998.01
4               OCCCO [propan-1,3-diol] + O           996.05

---

assay: xn = mol fraction of the nth substance listed; settings: 298.15 K; 98.93 kPa; Liquid; x1 = 0.17
Each entry below carries its recorded mass density.
quantity: mass density (kg/m3)

> print(dat)
                                   compound      quantity  reported.result
1                    CCCO [propan-1-ol] + O  mass density           926.68
2  CC(O)CO (centres undefined) [1,2-propanediol] + O  mass density          1032.86
3               OCCCO [propan-1,3-diol] + O  mass density          1031.44
4                   OCC(O)CO [glycerol] + O  mass density          1126.96

---

test: xn = mol fraction of the nth substance listed; conditions: 293.15 K; 98.93 kPa; Liquid; x1 = 0.17
quantity: mass density (kg/m3)

> print(dat)
                                   molecule      quantity  reported.result
1                   OCC(O)CO [glycerol] + O  mass density           1129.5
2               OCCCO [propan-1,3-diol] + O  mass density          1033.94
3                    CCCO [propan-1-ol] + O  mass density           929.49
4  CC(O)CO (centres undefined) [1,2-propanediol] + O  mass density          1035.11

---

experiment: xn = mol fraction of the nth substance listed; conditions: 283.15 K; 98.93 kPa; Liquid; x1 = 0.17
quantity: mass density (kg/m3)

> print(dat)
                                   molecule  value.units  reported.result
1                   OCC(O)CO [glycerol] + O        kg/m3          1133.96
2                    CCCO [propan-1-ol] + O        kg/m3            933.5
3               OCCCO [propan-1,3-diol] + O        kg/m3          1038.35
4  CC(O)CO (centres undefined) [1,2-propanediol] + O        kg/m3          1041.79

---

assay: xn = mol fraction of the nth substance listed; settings: 298.15 K; 98.93 kPa; Liquid; x1 = 0.01
Numbers after ± are expanded uncertainties.
quantity: mass density

> print(dat)
                                   compound      reported.result
1               OCCCO [propan-1,3-diol] + O   999.76 ± 1.3 kg/m3
2                    CCCO [propan-1-ol] + O   991.14 ± 1.3 kg/m3
3                   OCC(O)CO [glycerol] + O  1008.63 ± 1.3 kg/m3
4  CC(O)CO (centres undefined) [1,2-propanediol] + O   999.63 ± 1.3 kg/m3

---

experiment: xn = mol fraction of the nth substance listed; conditions: 308.15 K; 98.93 kPa; Liquid; x1 = 0.005
Here the recorded mass density is given for each entry.
quantity: mass density (kg/m3)

> print(dat)
                                   molecule      quantity  reported.result
1               OCCCO [propan-1,3-diol] + O  mass density           995.27
2                    CCCO [propan-1-ol] + O  mass density           991.05
3                   OCC(O)CO [glycerol] + O  mass density           999.81
4  CC(O)CO (centres undefined) [1,2-propanediol] + O  mass density           995.17

---

test: xn = mol fraction of the nth substance listed; conditions: 308.15 K; 98.93 kPa; Liquid; x1 = 0.03
In this section, each of the compounds is paired with its reported mass density.
quantity: mass density (kg/m3)

> print(dat)
                                   compound  value.units  reported.result
1               OCCCO [propan-1,3-diol] + O        kg/m3          1001.41
2                   OCC(O)CO [glycerol] + O        kg/m3          1026.18
3                    CCCO [propan-1-ol] + O        kg/m3           979.57
4  CC(O)CO (centres undefined) [1,2-propanediol] + O        kg/m3          1001.32

---

mass density overview
assay: xn = mol fraction of the nth substance listed; conditions: 298.15 K; 98.93 kPa; Liquid; x1 = 0.05
quantity: mass density (kg/m3)

> print(dat)
                                   molecule  reported.result
1               OCCCO [propan-1,3-diol] + O          1009.82
2                    CCCO [propan-1-ol] + O           975.49
3  CC(O)CO (centres undefined) [1,2-propanediol] + O           1010.8
4                   OCC(O)CO [glycerol] + O          1048.46

---

assay: xn = mol fraction of the nth substance listed; conditions: 283.15 K; 98.93 kPa; Liquid; x1 = 0.05
± gives the expanded uncertainty stated by the source.
quantity: mass density

> print(dat)
                                   compound      reported.result
1               OCCCO [propan-1,3-diol] + O  1013.46 ± 1.4 kg/m3
2  CC(O)CO (centres undefined) [1,2-propanediol] + O  1015.77 ± 1.4 kg/m3
3                    CCCO [propan-1-ol] + O   979.96 ± 1.3 kg/m3
4                   OCC(O)CO [glycerol] + O  1052.76 ± 1.4 kg/m3

---

assay: xn = mol fraction of the nth substance listed; details: 288.15 K; 98.93 kPa; Liquid; x1 = 0.065
// values below are reported mass density
quantity: mass density (kg/m3)

> print(dat)
                                   compound  value.units  reported.result
1                   OCC(O)CO [glycerol] + O        kg/m3          1064.68
2                    CCCO [propan-1-ol] + O        kg/m3           972.88
3  CC(O)CO (centres undefined) [1,2-propanediol] + O        kg/m3          1018.96
4               OCCCO [propan-1,3-diol] + O        kg/m3          1016.24

---

Recorded mass density, one value per entry.
assay: xn = mol fraction of the nth substance listed; settings: 288.15 K; 98.93 kPa; Liquid; x1 = 0.01
quantity: mass density (kg/m3)

> print(dat)
                                   molecule  reported.result
1               OCCCO [propan-1,3-diol] + O          1001.75
2                    CCCO [propan-1-ol] + O           993.49
3  CC(O)CO (centres undefined) [1,2-propanediol] + O          1001.93
4                   OCC(O)CO [glycerol] + O          1010.93
